target: MMP-12 catalytic domain (Homo sapiens, UniProt P39900); construct: catalytic domain(^100Phe˜^263Gly); His-tag; enterokinase digestion-site; assay: Assay for inhibitory activities on MMPs (fluorogenic peptide substrate): MMP-12; settings: substrate MOCAc-Pro-Leu-Gly-Leu-A2Pr(DNP)-Ala-Arg-NH2
Sequence (P39900 100-263): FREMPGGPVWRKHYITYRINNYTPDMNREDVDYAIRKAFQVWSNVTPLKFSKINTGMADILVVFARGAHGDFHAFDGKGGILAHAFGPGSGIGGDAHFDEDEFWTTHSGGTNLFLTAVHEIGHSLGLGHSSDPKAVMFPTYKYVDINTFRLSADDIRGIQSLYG
ASSAY_READOUT: IC50 (nM)

Illustrative cases are given below, each with its answer.
CC(C)[C@@H](NS(=O)(=O)c1ccc(C#Cc2ccc3ccccc3c2)cc1)C(=O)O    14
O=C(O)C[C@@H](NS(=O)(=O)c1ccc(C#Cc2ccc3ccccc3c2)s1)C(=O)O    40
CC(C)[C@H](NS(=O)(=O)c1ccc(C#Cc2ccc3ccccc3c2)s1)C(=O)O    82
O=C(O)[C@H](Cc1ccccc1)NS(=O)(=O)c1ccc(C#Cc2ccc3ccccc3c2)s1    240
CC(C)C[C@@H](NS(=O)(=O)c1ccc(C#Cc2ccc3ccccc3c2)cc1)C(=O)O    58

(A) O=C(O)[C@@H](Cc1ccccc1)NS(=O)(=O)c1ccc(C#Cc2ccc3ccccc3c2)cc1
(B) O=C(O)[C@H](NS(=O)(=O)c1ccc(C#Cc2ccc3ccccc3c2)cc1)c1ccc(O)cc1
(C) CSCC[C@@H](NS(=O)(=O)c1ccc(C#Cc2ccc3ccccc3c2)s1)C(=O)O
(D) O=C(O)[C@@H](Cc1ccccc1)NS(=O)(=O)c1ccc(-n2nnc(-c3ccc4ccccc4c3)n2)cc1
(E) O=C(O)[C@@H](Cc1ccccc1)NS(=O)(=O)c1ccc(C#Cc2cccc3ccccc23)s1
// ascending sort on recorded IC50 Respond with an ordered listing of the labels, as requested. C, A, B, D, E

(I) O=C(O)CNS(=O)(=O)c1ccc(C#Cc2ccc3ccccc3c2)s1
(II) O=C(O)[C@H](Cc1ccccc1)NS(=O)(=O)c1ccc(-n2nnc(-c3ccc4ccccc4c3)n2)cc1
(III) O=C(O)[C@H](Cc1ccccc1)NS(=O)(=O)c1ccc(C#Cc2ccc3c(c2)OCO3)cc1
(IV) C[C@H](NS(=O)(=O)c1ccc(C#Cc2ccc3ccccc3c2)cc1)C(=O)O
Sort by IC50, descending. Your reply should list the labels following the order given in the request. I, II, IV, III
(I: 260 nM, II: 140 nM, IV: 16 nM, III: 7.9 nM)

(1) O=C(O)[C@@H](Cc1ccccc1)NS(=O)(=O)c1ccc(C#Cc2ccc3ccccc3c2)s1
(2) O=C(O)CNS(=O)(=O)c1ccc(C#Cc2ccc3ccccc3c2)cc1
(3) C[C@H](NS(=O)(=O)c1ccc(C#Cc2ccc3ccccc3c2)s1)C(=O)O
// smallest IC50 at index 0, largest at the end Please express your ranking as an ordered list of the labels. 1, 2, 3
(1: 42 nM, 2: 69 nM, 3: 160 nM)

* * *

Reported IC50, MMP-2 (Homo sapiens).
ASSAY_READOUT: IC50 (nM)

Completed entries (count: 2):
CC(C)[C@@H](NS(=O)(=O)c1ccc(C#Cc2ccc3ccccc3c2)s1)C(=O)O    240
C[C@@H](NS(=O)(=O)c1ccc(C#Cc2ccc3ccccc3c2)s1)C(=O)O    350

(1) CC(C)C[C@@H](NS(=O)(=O)c1ccc(C#Cc2ccc3ccccc3c2)cc1)C(=O)O
(2) O=C(O)[C@H](Cc1ccccc1)NS(=O)(=O)c1ccc(C#Cc2ccc3c(c2)OCO3)cc1
Pick one: 1 or 2 . Which has the bigger IC50 number? Record your answer as the label of the chosen record. 1
